- tested-system: Epidermal growth factor receptor (Homo sapiens, UniProt P00533)
- Sequence (P00533 whole entry): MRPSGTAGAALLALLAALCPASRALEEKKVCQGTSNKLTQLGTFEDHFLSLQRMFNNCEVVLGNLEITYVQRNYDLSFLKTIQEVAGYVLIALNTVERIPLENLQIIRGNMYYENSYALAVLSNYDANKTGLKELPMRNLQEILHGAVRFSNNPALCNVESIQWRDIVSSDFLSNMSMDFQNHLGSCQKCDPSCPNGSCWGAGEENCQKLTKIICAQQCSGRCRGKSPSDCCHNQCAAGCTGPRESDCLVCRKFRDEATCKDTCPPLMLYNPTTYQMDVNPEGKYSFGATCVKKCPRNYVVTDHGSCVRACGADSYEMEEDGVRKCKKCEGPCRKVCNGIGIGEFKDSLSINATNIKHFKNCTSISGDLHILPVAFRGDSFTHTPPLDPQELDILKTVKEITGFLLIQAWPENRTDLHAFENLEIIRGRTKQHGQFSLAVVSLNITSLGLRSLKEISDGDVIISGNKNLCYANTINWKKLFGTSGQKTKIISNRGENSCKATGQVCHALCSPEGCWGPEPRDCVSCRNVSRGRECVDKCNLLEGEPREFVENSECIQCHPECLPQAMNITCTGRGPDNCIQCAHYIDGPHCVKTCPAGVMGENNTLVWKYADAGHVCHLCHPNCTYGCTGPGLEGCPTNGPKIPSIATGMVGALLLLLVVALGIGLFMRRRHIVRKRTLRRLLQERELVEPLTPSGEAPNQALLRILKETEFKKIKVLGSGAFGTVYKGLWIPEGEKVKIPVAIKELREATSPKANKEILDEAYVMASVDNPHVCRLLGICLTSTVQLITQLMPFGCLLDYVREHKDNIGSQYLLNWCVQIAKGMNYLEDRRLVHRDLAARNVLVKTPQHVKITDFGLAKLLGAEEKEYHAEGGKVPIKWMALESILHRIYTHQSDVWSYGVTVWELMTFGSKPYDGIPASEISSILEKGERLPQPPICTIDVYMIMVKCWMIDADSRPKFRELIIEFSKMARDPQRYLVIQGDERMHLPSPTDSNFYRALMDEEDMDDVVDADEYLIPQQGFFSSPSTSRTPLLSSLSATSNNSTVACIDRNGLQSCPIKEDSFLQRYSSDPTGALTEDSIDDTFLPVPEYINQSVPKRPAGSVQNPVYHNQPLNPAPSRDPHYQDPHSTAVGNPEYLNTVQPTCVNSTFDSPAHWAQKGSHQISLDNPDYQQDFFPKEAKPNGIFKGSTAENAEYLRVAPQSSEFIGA
parameter-measured: pIC50
In textbook form, pIC50 equals minus log to base ten of the concentration in mol/L.

Form field: reported pIC50 of CC(C)N(CCC(=O)c1ccc2ccccc2c1)Cc1ccccc1
5.60

----------
- tested-system: Tyrosine-protein kinase Lck (Homo sapiens)
- Sequence (P06239 whole entry): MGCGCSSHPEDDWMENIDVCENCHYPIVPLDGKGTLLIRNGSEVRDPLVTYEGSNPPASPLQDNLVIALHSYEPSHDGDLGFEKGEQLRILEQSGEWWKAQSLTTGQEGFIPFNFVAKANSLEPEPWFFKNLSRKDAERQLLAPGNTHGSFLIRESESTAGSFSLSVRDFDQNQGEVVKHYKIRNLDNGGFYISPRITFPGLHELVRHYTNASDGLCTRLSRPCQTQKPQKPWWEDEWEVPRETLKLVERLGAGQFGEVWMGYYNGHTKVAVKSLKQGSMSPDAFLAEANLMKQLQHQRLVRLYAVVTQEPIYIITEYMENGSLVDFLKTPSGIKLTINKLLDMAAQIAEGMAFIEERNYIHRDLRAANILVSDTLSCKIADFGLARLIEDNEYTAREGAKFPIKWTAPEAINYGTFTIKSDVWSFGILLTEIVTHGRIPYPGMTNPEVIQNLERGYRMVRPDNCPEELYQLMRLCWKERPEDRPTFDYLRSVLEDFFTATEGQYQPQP
pIC50: −log10 of the molar value.
parameter-measured: pIC50

Request body: readout pIC50, system Tyrosine-protein kinase Lck (Homo sapiens), query CC(C)N(CCC(=O)c1ccc2ccccc2c1)Cc1ccccc1 . Return the value.
< 5.00
